test: Mouse brain uptake assay (MBUA), 3 mg/kg IV, 0-1 h, 3 time points; type: in vivo, male CD1 mice; conditions: male, CD1; plasma, mouse, 3 mg/kg IV, 0-1 h; read-out: AUClast (P)
Readout Label: AUC(0-t) (ng·h/mL)

• Cc1cccnc1[C@@H]1CCC[C@H](c2nc3cccc(N4CCN(C)CC4)c3[nH]2)N1C (racemic) [I-3] = 268
• Cc1cccnc1[C@@H]1CCC[C@H](c2nc3ccccc3n2CC2CCN(C)CC2)N1C [I-15] = 161
• CN1CCN(c2cccc3nc([C@H]4CCC[C@@H](c5ncccc5Cl)N4)[nH]c23)CC1 (racemic) [I-122] = 341
• Cc1cccnc1[C@@H]1CCC[C@H](c2nc3cccc(N4CCN(C)CC4)c3[nH]2)N1 [I-83] = 316
• Cc1cccnc1[C@@H]1CCC[C@H](c2nc3cccc(N4CCN(C)C5(CC5)C4)c3[nH]2)N1 [I-132] = 323
• Cc1cccnc1[C@@H]1CCC[C@H](c2nc3ccccc3n2CC2CCN(C(C)C)CC2)N1C [I-23] = 120
• COc1cccnc1[C@@H]1CCC[C@H](c2nc3cccc(N4CCN(C)CC4)c3[nH]2)N1 [I-127] = 313
• CN1CCN(c2cccc3nc([C@H]4CCC[C@@H](c5ncccc5Cl)N4C)[nH]c23)CC1 [I-9] = 601

----------
biological target: Jurkat cells expressing CXCR4 (Homo sapiens); construct: endogenous in cells; assay: Chemokine (CXCL12-AF647) binding inhibition assay; conditions: CXCL12-AF647 25 ng/mL, read-out: IC50 CXCL-12 binding Jurkat
Sequence (P61073 whole entry): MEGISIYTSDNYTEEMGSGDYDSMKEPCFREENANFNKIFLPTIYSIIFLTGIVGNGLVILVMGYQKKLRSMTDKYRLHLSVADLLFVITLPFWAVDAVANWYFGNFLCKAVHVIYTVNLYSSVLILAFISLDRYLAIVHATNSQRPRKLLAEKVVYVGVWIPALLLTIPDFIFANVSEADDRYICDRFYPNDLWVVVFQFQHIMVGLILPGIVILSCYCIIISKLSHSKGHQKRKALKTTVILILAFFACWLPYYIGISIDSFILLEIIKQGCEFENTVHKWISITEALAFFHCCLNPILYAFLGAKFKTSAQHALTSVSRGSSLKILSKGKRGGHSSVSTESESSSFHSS
Readout Label: IC50

• Cc1cccnc1[C@@H]1CCC[C@H](c2nc3cccc(N4CCN(C)C(C)(C)C4)c3[nH]2)N1C = 0.01 to 100 nM
• Cc1cccnc1[C@@H]1CCC[C@H](c2nc3cccc(Oc4cccnc4)c3[nH]2)N1C = 100 to 1000 nM
• Cc1cccnc1[C@@H]1CCC[C@H](c2nc3cccc(OC4CCN(C(C)C)CC4)c3[nH]2)N1C = 0.01 to 100 nM
• CN1CCN(c2cccc3nc([C@H]4CCC[C@@H](c5nccc6ccccc56)N4C)[nH]c23)CC1 = 0.01 to 100 nM
• Cc1ccnnc1[C@@H]1CCC[C@H](c2nc3cccc(N4CCN(C)CC4)c3[nH]2)N1C = 100 to 1000 nM
• Cc1cccnc1[C@@H]1CCC[C@H](c2nccn2CCCN(C)C)N1C = 0.01 to 100 nM
• COc1ccnc([C@@H]2CCC[C@H](c3nc4cccc(N5CCN(C)CC5)c4[nH]3)N2C)c1C = 0.01 to 100 nM
• Cc1cccnc1[C@@H]1CCC[C@H](c2nc3cccc(N4CC5CCC(C4)N5)c3[nH]2)N1C = 0.01 to 100 nM
• Cc1cccnc1[C@@H]1CCC[C@H](c2nc3ccccc3n2CCCCN2CCN(C)CC2)N1C = 100 to 1000 nM
• Cc1cccnc1[C@@H]1CCC[C@H](c2nc3cccc(N4C[C@@H](C)N(C)[C@@H](C)C4)c3[nH]2)N1C = 0.01 to 100 nM
• Cc1cccnc1[C@@H]1CCC[C@H](c2nc3cccc(N4CCN(C5CC5)CC4)c3[nH]2)N1 = 0.01 to 100 nM
• CN(C)C1CCN(c2cccc3nc([C@H]4CCC[C@@H](c5ncccc5Cl)N4)[nH]c23)CC1 = 0.01 to 100 nM
• Cc1cccnc1[C@@H]1CCC[C@H](c2nc3ccccc3n2Cc2ccccc2-n2cccn2)N1 = 100 to 1000 nM
• Cc1cccnc1[C@@H]1CCC[C@H](c2nc3ccccc3n2C2CCN(C)CC2)N1 = 0.01 to 100 nM
• CN1CCN(c2cccc3nc([C@H]4CCC[C@@H](c5ncccc5Cl)N4)[nH]c23)CC1 (racemic) = 0.01 to 100 nM
• Clc1cccnc1[C@@H]1CCC[C@H](c2nc3cccc(N4CCN(C5CC5)CC4)c3[nH]2)N1 = 0.01 to 100 nM
• CN1CCC(n2ccnc2[C@H]2CCC[C@@H](c3ccccn3)N2)CC1 = ≥ 1000 nM

----------
experiment: in vitro; details: human, Caco-2, pH 7.4
This listing pairs compounds with measured Papp B→A at 90 min, 10 μM.
Readout Label: Papp B→A at 90 min, 10 μM

- Cc1cccnc1[C@@H]1CCC[C@H](c2nc3cccc(N4CCN(C(C)C)CC4)c3[nH]2)N1: 10 to 30 ×10⁻⁶ cm/s
- Cc1cccnc1[C@@H]1CCC[C@H](c2nc3cccc(N4CC5CCC(C4)N5C)c3[nH]2)N1C: 10 to 30 ×10⁻⁶ cm/s
- Cc1cccnc1[C@@H]1CCC[C@H](c2nc3cccc(N4CCNC5(CC5)C4)c3[nH]2)N1C: 10 to 30 ×10⁻⁶ cm/s
- Cc1cccnc1[C@@H]1CCC[C@H](c2nc3cccc(N4C[C@@H](C)N[C@@H](C)C4)c3[nH]2)N1C: 10 to 30 ×10⁻⁶ cm/s
- Cc1cccnc1[C@@H]1C[C@H](O)C[C@H](c2nc3cccc(N4CCN(C)CC4)c3[nH]2)N1C: 10 to 30 ×10⁻⁶ cm/s
- [2H]C([2H])([2H])N1CCN(c2cccc3nc([C@H]4CCC[C@@H](c5ncccc5C)N4C)[nH]c23)CC1: 10 to 30 ×10⁻⁶ cm/s
- Cc1c(Cl)ccnc1[C@@H]1CCC[C@H](c2nc3cccc(N4CCN(C)CC4)c3[nH]2)N1C: 10 to 30 ×10⁻⁶ cm/s
- Cc1cccnc1[C@@H]1CCC[C@H](c2nc3ccccc3n2CCCN(C)C)N1: > 30 ×10⁻⁶ cm/s
- Cc1cccnc1[C@H]1CCC[C@@H](c2nc3cccc(N4CCN(C)CC4)c3[nH]2)N1C (single isomer, unassigned): 0.1 to 10 ×10⁻⁶ cm/s
- Cc1cccnc1[C@@H]1CCC[C@H](c2nc3cccc(N4CC5CCC(C4)N5C)c3[nH]2)N1: > 30 ×10⁻⁶ cm/s
- CN1CCN(c2cccc3nc([C@H]4CCC[C@@H](c5ncccc5C5CC5)N4C)[nH]c23)CC1 (stereo in doubt): 10 to 30 ×10⁻⁶ cm/s
- CN1CCN(c2cccc3nc([C@H]4CCC[C@@H](c5nccc6c5OCCO6)N4C)[nH]c23)CC1: 10 to 30 ×10⁻⁶ cm/s
- Cc1cccnc1[C@@H]1CCC[C@H](c2nccn2CCn2cccn2)N1: > 30 ×10⁻⁶ cm/s
- Cc1cccnc1[C@@H]1CCC[C@H](c2nc3cccc(N4C5CCC4CN(C)C5)c3[nH]2)N1C: 10 to 30 ×10⁻⁶ cm/s
- CCN1CCN(c2cccc3nc([C@H]4CCC[C@@H](c5ncccc5Cl)N4)[nH]c23)CC1: 10 to 30 ×10⁻⁶ cm/s
- Cc1cccnc1[C@@H]1CCC[C@H](c2nccn2C2CCN(C)CC2)N1: 10 to 30 ×10⁻⁶ cm/s

----------
Attribute: pIC50
target: Jurkat cells expressing CXCR4 (Homo sapiens); construct: endogenous in cells; experiment: Chemokine (CXCL12-AF647) binding inhibition assay; conditions: CXCL12-AF647 25 ng/mL, read-out: IC50 CXCL-12 binding Jurkat
pIC50: −log10 of the molar value.
Readout Label: pIC50

- CN1CCN(c2cccc3nc([C@H]4CCC[C@@H](c5ncccc5C5CC5)N4C)[nH]c23)CC1 (stereo in doubt) [I-61]: 7.00 to 11.00
- Cc1cccnc1[C@@H]1CCC[C@H](c2nc3ccccc3n2CC2CCN(C(C)C)CC2)N1C [I-23]: 7.00 to 11.00
- CN1CCC(n2ccnc2[C@H]2CCC[C@@H](c3ncccc3Cl)N2C)CC1 [I-170]: 7.00 to 11.00
- Cc1cccnc1[C@@H]1CCC[C@H](c2nc3cccc(N4CCN(C5CC5)CC4)c3[nH]2)N1C [I-76]: 7.00 to 11.00
- Cc1cccnc1[C@@H]1CCC[C@H](c2nc3ccccc3n2CCC#N)N1C [I-160]: 6.00 to 7.00
- Cc1cccnc1[C@@H]1CCC[C@H](c2nccn2C2CCN(C3CC3)CC2)N1C [I-174]: 7.00 to 11.00
- Cc1cccnc1[C@@H]1CCC[C@H](c2nc3c(N4CCN(C)CC4)cccc3n2C)N1C [I-36]: ≤ 6.00
- Cc1cccnc1[C@@H]1CCC[C@H](c2nc3cccc(N4CCN(C(C)C)CC4)c3[nH]2)N1 [I-128]: 7.00 to 11.00
- Cc1cccnc1[C@@H]1CCC[C@H](c2nccn2C2CCN(C)CC2)N1 [I-171]: 7.00 to 11.00
- Cc1cccnc1[C@@H]1CCC[C@H](c2nc3cccc(N4CCNC5(CC5)C4)c3[nH]2)N1C [I-129]: 7.00 to 11.00
- CN1CCC(n2ccnc2[C@H]2CCC[C@@H](c3ncccc3Cl)N2)CC1 [I-172]: ≤ 6.00
- CC(C)N1CCN(c2cccc3nc([C@H]4CCC[C@@H](c5ncccc5Cl)N4)[nH]c23)CC1 [I-148]: 7.00 to 11.00
- Cc1cccnc1[C@@H]1CCC[C@H](c2nc3ccccc3n2CCC#N)N1 [I-159]: ≤ 6.00
- Cc1cccnc1[C@@H]1C[C@H](O)C[C@H](c2nc3cccc(N4CCN(C)CC4)c3[nH]2)N1C [I-100]: 7.00 to 11.00
- [2H]C([2H])([2H])N1CCN(c2cccc3nc([C@H]4CCC[C@@H](c5ncccc5C)N4C)[nH]c23)CC1 [I-111]: 7.00 to 11.00
- Cc1cccnc1[C@@H]1CCC[C@H](c2nc3ccccc3n2CC2CCCN(C)C2)N1C (some centres unmarked) [I-13]: 7.00 to 11.00
- Cc1cccnc1[C@@H]1CCC[C@H](c2nc3cccc(N4C5CCC4CN(C)C5)c3[nH]2)N1C [I-57]: 7.00 to 11.00

Taken from patent US10988465B2.
